# experimentSummary: Terminal half life in Sprague-Dawley rat at 3 mg/kg, po administered in cassette mode
# Type: ADME, organism-based
# assayConditions: in vivo, read-out: beta t1/2 (converted)
For each entry below, report its half-life value.
The reply should be a number in h, with the unit left off.

For [2H]C([2H])([2H])C(c1nccc(-c2sc(NC(=O)N3CCC[C@H]3C(N)=O)nc2C)n1)(C([2H])([2H])[2H])C([2H])([2H])[2H] , what is its reported half-life? 1.5

Would you kindly share the measured half-life for Cc1nc(NC(=O)N2CCC[C@H]2C(N)=O)sc1-c1ccnc(C(C)(C)C)n1 ? 1.2
